Molecular target: Human His6-CBX7 (Homo sapiens (Human))
Sequence (O95931 11-69): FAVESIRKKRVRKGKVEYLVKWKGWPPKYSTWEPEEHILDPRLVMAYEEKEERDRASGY
Mark fulfilled only for IC50 values smaller than 20 µM; exact matches and larger values are not fulfilled.

>  <Compound>
O=C(COCc1ccc(CN2CCCC2)cc1)N[C@H]1CCCN(Cc2cccnc2)C1=O [ACV-80]

>  <Tested system>
Human His6-CBX7 (Homo sapiens (Human))

>  <Assigned category>
fulfilled

$$$$
>  <Compound>
COc1ccc(CC(=O)Nc2nc(CC(=O)Nc3ccc(N4CCCC4)cc3)cs2)c(OC)c1OC [ACV-83]

>  <Tested system>
Human His6-CBX7 (Homo sapiens (Human))

>  <Assigned category>
not fulfilled

$$$$
>  <Compound>
O=C(O)c1cc(-c2ccco2)nc2ccccc12 [ACV-07 (2)]

>  <Tested system>
Human His6-CBX7 (Homo sapiens (Human))

>  <Assigned category>
not fulfilled

$$$$

Strictly below 20 µM in IC50? CN(C)c1ccc(/C=N/N=C2\NC(=O)C(CC(=O)Nc3ccc(N4CCCC4)cc3)S2)cc1 (centres unmarked) [ACV-21] fulfilled

Record COc1cccc(/C=N/N=C2\NC(=O)C(CC(=O)Nc3ccc(N4CCCC4)cc3)S2)c1OC (centres unmarked) [ACV-37] : is its IC50 strictly below 20 µM? not fulfilled

Is 20 µM strictly greater than the compound's reported IC50? compound: O=C(Cc1cnc(NC(=O)Nc2cccc(C(F)(F)F)c2)s1)Nc1ccc(N2CCCC2)cc1 [ACV-51] not fulfilled

Is IC50 of O=C(CC1S/C(=N/N=C/c2cccc(-c3ccc(C(=O)O)cc3)c2)NC1=O)Nc1ccc(N2CCCC2)cc1 (centres unmarked) [ACV-32] strictly below 20 µM? not fulfilled

For this compound, is IC50 lower than 20 µM? O=C(NCc1cccc(N2CCCC2)n1)c1cc(-c2ccco2)nc2ccccc12 [ACV-09] fulfilled
